# test name: rescue of L929 cells from caspase-blocker death – duplicate runs, confirmation (AID 463117)
# conditions: L929 zVAD-induced necroptosis rescue, ATP luminescence, 24 h; at 10 µM; hits give high values
Some of the results follow.
Binary call on activation (protection from necroptosis): y from 60% upward, n beneath that.

Would you please look over these solved cases?
Cn1ccc(NC(=O)Nc2ccc(Cl)cc2)n1
n
OCCCNc1nccc(-c2cc(Nc3cccc(Cl)c3)ncn2)n1
y
CC1CCCCC1NC(=O)/C(C#N)=C/C=C/c1ccccc1[N+](=O)[O-] (configuration not stated)
n
CC(=O)Nc1cccc(-c2cnc3ccccc3n2)c1
n
Cc1ccc(NC(=O)COc2ccc(-n3ccnc3)cc2)cc1Cl
y
COc1cc(/C=N/Nc2nc3ccccc3s2)ccc1O
y

Let's switch to this molecule now.
Asked: Could you please find out whether "COc1ccc(Nc2ncc(F)c(N3CCOCC3)n2)cc1" has activation (protection from necroptosis) that meets 60% or exceeds it?
Given back: n
